Exercise: state measured AmyQ secretion efficiency for each of the sequences provided.
tested on: Bacillus subtilis DB104 (SP-AmyQ fusion secretion); assay: AmyQ secretion efficiency, weighted average sort bin (1 = best secretion, 10 = worst) (bin number (weighted average, 1-10)); higher = lower secretion efficiency

(Q) Sample MILRKVLTGSVLSLGLLVSASPAFATSP — what was its AmyQ secretion efficiency?
(A) 1.73

(Q) Same thing, different sequence: MKKTLAAGIIGLLTVSIASPSFAAEK
(A) 2.62

(Q) Same thing, different sequence: MLKKVILAAFILVGSTLGRKSFSSKASAKHV
(A) 6.14

(Q) Same thing, different sequence: MKKTIMSFVAVAALSTTAFVAFTTSTLSGAHASAKEI
(A) 4.48

(Q) Same thing, different sequence: MRKKRAVLLSLIMLIAGFLISFSFQM
(A) 7.34

(Q) Same thing, different sequence: MKSKGSIMACLILFSFTITTFINTETTSAFSN
(A) 5.51

(Q) Same thing, different sequence: MTKLKMLSMLTVMIASLFIFSSQALSVQY
(A) 2.56

(Q) Same thing, different sequence: MLCKRKRLFSAIASFPVSAQAKDQ
(A) 7.61

---

tested on: Bacillus subtilis DB104 (SP-AmyQ fusion secretion); assay: AmyQ secretion efficiency, weighted average sort bin (1 = best secretion, 10 = worst) (bin number (weighted average, 1-10)); higher = lower secretion efficiency
Exercise: state measured AmyQ secretion efficiency for each of the sequences provided.
The reply should be a number, written without any unit.

(Q) Sample MKKWMAGLFLAAAVLLCLLVTSLMVPQQIQGASS — what was its AmyQ secretion efficiency?
(A) 4.31

(Q) Same thing, different sequence: MKKWIYVVLVLSIAGIGGFSVHAKKR
(A) 6.58

(Q) Same thing, different sequence: MLCVMMLLFSAIASFPVSFTFPAFATAQAKDQ
(A) 7.71

(Q) Same thing, different sequence: MGSGTSMLFSTLALAAGMTAAAAGGAGTIHAQQP
(A) 2.01

(Q) Same thing, different sequence: MNKKYFVLIVCIIFTSALFPTFSSVTAAQR
(A) 1.45

(Q) Same thing, different sequence: MNIKKFAKQATVLTFTTALLAGGATQAFAKET
(A) 3.3

(Q) Same thing, different sequence: MRKYTVIASILLSFLSVLESKAFPV
(A) 4.71

(Q) Same thing, different sequence: MRPVFPLILSAVLFLSCFFGARQTEASVSKR
(A) 2.77

(Q) Same thing, different sequence: MKKRFFGPIILAFILFAGLIAIPS
(A) 5.16

(Q) Same thing, different sequence: MKKRRKKLLAAGIIGLLTVSIASPSFAAEK
(A) 3.36

(Q) Same thing, different sequence: MRSYIKVLTMCFLGLILFVPTGVFGSSPPFAAALADNS
(A) 3.3

(Q) Same thing, different sequence: MKKKQVMLALTAAAGLGLTALHSAPALKAAPL
(A) 4.89

(Q) Same thing, different sequence: MKLKSKYKGGCYAAAAIFTAAGVSANAEALDF
(A) 7.31

(Q) Same thing, different sequence: MRMLWRSLALCGLALTLAPCTGTAQAAEP
(A) 1.82

(Q) Same thing, different sequence: MKSLPYTIALLFCGLIIVSMAAKGHED
(A) 7.33

(Q) Same thing, different sequence: MKKKTLSLFVGLMLLIGLLFSGSLPYNPNAAEASSS [wt_amyM]
(A) 3.81

(Q) Same thing, different sequence: MKKIVSILFMFGLVMGFSSFFPSTVFAADK
(A) 3.12

(Q) Same thing, different sequence: MKKRFFGPIILAFILFAGAIDIPS
(A) 6.03

(Q) Same thing, different sequence: MFKKHTISLLIIFLLASAVLAKPEEAHTV
(A) 4.88

(Q) Same thing, different sequence: MKKKLAAGLTASAIVGTTLVTTISAVTPAEAATI
(A) 2.98

(Q) Same thing, different sequence: MKQIMIFLTSFMLLARRRRKKALAKDV
(A) 7.64

(Q) Same thing, different sequence: MKKKQVMLALTAAAGLGLTALHSAPAAKQAPL
(A) 4.93

(Q) Same thing, different sequence: MRHKIITFILAVVVIIIIGNMIGGGGGSEATSE
(A) 3.29

(Q) Same thing, different sequence: MKKWLKKKRKKAIAIVLFMYTKGEAKAAGM
(A) 7.14

(Q) Same thing, different sequence: MKKRLIAPMLLSAASLAFFAMSGSEQAAAY
(A) 3.75

(Q) Same thing, different sequence: MKKKIRRKKKKSAVVGSSMAAAPAEAKTI
(A) 7.24

(Q) Same thing, different sequence: MIAYFGKCLLLVTIMFLGVLFGMQQGNHG
(A) 5.32

(Q) Same thing, different sequence: MNLRKILLSSALSLGMLVSAAPQLATSS
(A) 4.11

(Q) Same thing, different sequence: MKKKLAAGLTASAIVGTTLVVTPQEAATI
(A) 5.9

(Q) Same thing, different sequence: MKKKQVMLALTAAAGLGLTALHSAPAAKAAPD
(A) 2.15

(Q) Same thing, different sequence: MKKVLMAFIICLSLILVVLAAGPSTAKAESV
(A) 1.98

(Q) Same thing, different sequence: MRPVFPLILSAVLFLFGARQTEASASKR
(A) 5.49

(Q) Same thing, different sequence: MHLIRAAGAVCLAVVLIAGCRFNEDQHQAEDENT
(A) 5.99

(Q) Same thing, different sequence: MKKLVLCVSILAVILSGVYLTQLS
(A) 5.92

---

system: Bacillus subtilis DB104 (SP-AmyQ fusion secretion); assay: AmyQ secretion efficiency, weighted average sort bin (1 = best secretion, 10 = worst) (bin number (weighted average, 1-10)); higher = lower secretion efficiency
quantityKind: AmyQ secretion efficiency
The reply should be a number, written without any unit.

(Q) Sample MKKRLIAPMLLSAASLAFFAMAQAAAY — what was its AmyQ secretion efficiency?
(A) 6.11

(Q) Same thing, different sequence: MKKQIITATTAVVLGSTLFAKKASAQSI
(A) 6.18

(Q) Same thing, different sequence: MKKSQYSRQSKCTFVLFSVHPIAAAAADS
(A) 7.33

(Q) Same thing, different sequence: MLKRTSFVSSLFISSAVLLSILLPSGQLHAQSA
(A) 1.71

(Q) Same thing, different sequence: MKKRRLIGFLVLVPALIMSGITLIEANKK
(A) 6.64

(Q) Same thing, different sequence: MKLAKRVSALTPSTTLAITGFVGSTTFTAPTAKAKEL
(A) 6.19

(Q) Same thing, different sequence: MKRITINIITMFIAAAVIFLVVFTSSGTAEAAEK
(A) 2.77

(Q) Same thing, different sequence: MLKKIALTLCPAIVGSLLFFTAPTSAHVS
(A) 3.63

(Q) Same thing, different sequence: MILITINIITMFIAAAVISLTGTAEAAEK
(A) 4.83

(Q) Same thing, different sequence: MKRIRIPMTLALGAALTIAPLDEDASAEEN
(A) 3.3

(Q) Same thing, different sequence: MKKLLAAGIIGLLTVSIASPGFVFSFAAEK
(A) 8.62

(Q) Same thing, different sequence: MRIFKKARKKRRKSFLIATVNVNTAHAAID
(A) 6.58

(Q) Same thing, different sequence: MKKVSALTPSTTLAITAKAKEL
(A) 6.89

(Q) Same thing, different sequence: MNKLKRLSMLTVMIASVFIFSSHTLAAQY
(A) 1.95

(Q) Same thing, different sequence: MNFKKTVVSALSISALALTVTSISVSGVASAHEI
(A) 3.48

(Q) Same thing, different sequence: MNLRKILLSSALSLGMLVSAAPLLATSS
(A) 4.04

(Q) Same thing, different sequence: MHLIRAAGAVCLAVVLIAGCRFNEDQHQVEGENT
(A) 4.66

(Q) Same thing, different sequence: MKWMCSICCAAVLLAGLGAAQAEAV
(A) 3.8

---

system: Bacillus subtilis DB104 (SP-AmyQ fusion secretion); experiment: AmyQ secretion efficiency, weighted average sort bin (1 = best secretion, 10 = worst) (bin number (weighted average, 1-10)); higher = lower secretion efficiency
Exercise: state measured AmyQ secretion efficiency for each of the sequences provided.
The reply should be a number, written without any unit.

(Q) Tell me reported AmyQ secretion efficiency for MRPVFPLILSAVLFLSCFFGARQTEHSASKR , tested with Bacillus subtilis DB104 (SP-AmyQ fusion secretion).
(A) 6.3

(Q) Same thing, different sequence: MKLAKRVSALTPSTTLAITDKAKEL
(A) 7.38

(Q) Same thing, different sequence: MKLSVKIAGVLTVAAAAMTAKMYSTAKGN
(A) 6.41

(Q) Same thing, different sequence: MMIKQCKRCKKRKVFGTTAAHAEET
(A) 7.72

(Q) Same thing, different sequence: MKKRKRKTLVVLFTIVTFGLVSPPAALMADKP
(A) 2.34

(Q) Same thing, different sequence: MPIKKKVMMCLAVTLVFGSMRKRRRKNSGGFKE
(A) 8.69

(Q) Same thing, different sequence: MKRLFMKASLVLFAVVFVFKPAKAETH
(A) 3.15

(Q) Same thing, different sequence: MKLAKRVRKLTPSTTLAITAKAKEL
(A) 8.89

(Q) Same thing, different sequence: MVKKWYYQSKSSLSVLSTFTYSASAVGV
(A) 5.88

(Q) Same thing, different sequence: MKKRLIAPMLLSAASLAFMSGSAQAAAY
(A) 3.31

(Q) Same thing, different sequence: MSFIIIPMTLALGAALTIAPLSFASAEEN
(A) 6.39

(Q) Same thing, different sequence: MRPVFPLILSAVLFLSCFEGAEQTEASASKR
(A) 3.25

(Q) Same thing, different sequence: MKKQIITATTAVVLGSTLFAGAASAQKR
(A) 2.23

(Q) Same thing, different sequence: MKKLSVAVAASFMSLSISLPGVQAAEG
(A) 1.57

(Q) Same thing, different sequence: MKKQIITATTAVVLGSTLFAGAMSAQSI
(A) 1.54

(Q) Same thing, different sequence: MLKKIALTLCPAIVGSLLFFTAPPFSASAHVS
(A) 4.02

(Q) Same thing, different sequence: MAIIIAIIAAVIVIAALITFNVGTPRNASPG
(A) 8.5

(Q) Same thing, different sequence: MRPVFPLILSAVLFLSCFFGARQTEASARKR
(A) 2.01

(Q) Same thing, different sequence: MKRKSCKLVVSVTLFFSFLTIGPLAHAQNS
(A) 1.46

(Q) Same thing, different sequence: MPYLKRVLLLLVTGLFMSLFEEEATASAQTG
(A) 1.12

(Q) Same thing, different sequence: MKRKLLSSLAISASAPTASFAAES
(A) 7.94

(Q) Same thing, different sequence: MKKCLLFLTTIALILSLSTNAFAANR
(A) 1.56

(Q) Same thing, different sequence: MKRMIVRMTLPLLIVCLAFSSFSASARCASE
(A) 4.35

(Q) Same thing, different sequence: MRRRWRSLALCGLALTLAPCAQAAEP
(A) 2.05

(Q) Same thing, different sequence: MKLSVKIAGVLTVAAAAMTAKMYATAAGD
(A) 6.46

(Q) Same thing, different sequence: MLKKIALTLCPAIVGSLLFFTAPWSAHVS
(A) 4.74

(Q) Same thing, different sequence: MLCVMMLLFSAIASFPVSAQDKDQ
(A) 6.19

(Q) Same thing, different sequence: MGMTSNLSLGVASAALGLALVGGGTWAAFN
(A) 8.22

(Q) Same thing, different sequence: MRKKRVITCVMAASLTLGSLLPAGYMSAKED
(A) 2.67

(Q) Same thing, different sequence: MKRLLVSLRVWMVFLMNWVTPDRKTAAAAEE
(A) 6.3

(Q) Same thing, different sequence: MKRTLPLLIVCLAFSSFSASARAASE
(A) 2.25

(Q) Same thing, different sequence: MRKKRVITCVMAASLTLGSLLPAGYASAAPS
(A) 2.5

(Q) Same thing, different sequence: MKKGKRTRTIGLLTVSIASPSFAAEK
(A) 6.26

(Q) Same thing, different sequence: MLTKRLLTIYIMLLGLIAWFPGAAQAAKK
(A) 4.2

(Q) Same thing, different sequence: MKKAFILSAAAAVGLFTFGGVQQASVKEL
(A) 6.39

(Q) Same thing, different sequence: MKLSVKTRQKTTVAAAAMTAKMYATAKGN
(A) 7.48

(Q) Same thing, different sequence: MKKRWRKTSQAAVLLLMVPKVSLADAA
(A) 7.38

(Q) Same thing, different sequence: MKLAKRVSALTPSTTLAITKKAKEL
(A) 6.57

(Q) Same thing, different sequence: MPIKKKVMMCLAVTLVFGSMSFPTLTNEGGFKE
(A) 4.78

(Q) Same thing, different sequence: MKKWMITIAMLILAGIALFVFIRKLKSHKT
(A) 7.72
